System: Nucleic Acid
PROTOCOL SUMMARY: DNA binding affinity was evaluated as thermal denaturation using calf thymus DNA
Format: nucleic-acid assay
PROTOCOL CONDITIONS: Bos taurus
MEASURE: ΔTm (°C)

a. CC1C[C@]2(C)C(NCCCCN)=Nc3ccccc3[C@@H]2N(C)c2ccccc21 (stereo partly drawn)
b. CCCNC1=Nc2ccccc2[C@@H]2N(C)c3ccccc3C(C)C[C@]12C (stereo partly drawn)
c. CNc1cccc2c1C(C)C[C@]1(C)C(NCCCCN)=Nc3ccccc3[C@H]21 (stereo partly drawn)
d. CNc1cccc2c1C(C)C[C@]1(C)C(NCCCO)=Nc3ccccc3[C@H]21 (stereo partly drawn)
**Query** Please arrange the 4 compounds above from largest to smallest ΔTm value. List the labels in the requested order.
**Result** c, a, d, b
(c: 1.14 °C, a: 0.58 °C, d: 0.35 °C, b: 0.17 °C)

a. CNc1cccc2c1C(C)C[C@]1(C)C(NCCCN)=Nc3ccccc3[C@H]21 (stereo partly drawn)
b. CC1C[C@]2(C)C(NCCCN)=Nc3ccccc3[C@@H]2N(C)c2ccccc21 (stereo partly drawn)
c. CC1C[C@]2(C)C(NCCCO)=Nc3ccccc3[C@@H]2N(C)c2ccccc21 (stereo partly drawn)
**Query** Falling order of ΔTm, please. List the labels in the requested order.
**Result** a, b, c
(a: 0.88 °C, b: 0.46 °C, c: 0.24 °C)
